tested on: LNCaP; test: Cell growth inhibition assay, prostate cancer cell line LNCaP (medium with 10 ng/mL IL-6); format: cell-based; settings: Homo sapiens, medium supplemented with 10 ng/mL of IL-6, 10,000 cells/well
Endpoint name: IC50 (µM)
Express your answer in µM, writing the number without its unit.

CC(C)(c1cc(Br)cc(NC(=O)c2cc3cc(NS(C)(=O)=O)ccc3s2)c1)c1cc(OC(F)(F)F)ccc1F
0.031

For reference, reported IC50 for `Cn1c(C(=O)Nc2cccc(-c3ccc(F)cc3F)c2)cc2ccc(NS(C)(=O)=O)cc21` stands at 9.6

For reference, reported IC50 for `COc1cc(NC(=O)c2sc3cc(NS(C)(=O)=O)ccc3c2C)cc(-c2ccc(F)cc2F)c1` stands at 7

For reference, reported IC50 for `CC(C)(c1cc(Br)cc(NC(=O)c2cc3ccc(NS(C)(=O)=O)cc3[nH]2)c1)c1ccc(F)cc1F` stands at 0.29

For reference, reported IC50 for CC(C)Oc1cc(OC(F)(F)F)cc(C(C)(C)c2cc(Cl)cc(NC(=O)c3cc4cc(NS(=O)(=O)CC5CCOC5)ccc4s3)c2)c1 (centres unmarked) stands at 0.084

For reference, reported IC50 for `COc1cc(OC(F)(F)F)cc(C(C)(C)c2cc(Cl)cc(NC(=O)c3cc4cc(NS(C)(=O)=O)ccc4s3)c2)c1` stands at 0.032

For reference, reported IC50 for `Cc1c(C(=O)Nc2cc(Br)cc(-c3ccc(F)cc3F)c2)sc2ccc(NS(C)(=O)=O)cc12` stands at 6.7

For reference, reported IC50 for `CNc1cc(NC(=O)c2cc3ccc(NS(C)(=O)=O)cc3[nH]2)cc(-c2ccc(F)cc2F)c1` stands at 4.4

For reference, reported IC50 for `CS(=O)(=O)Nc1ccc2cc(C(=O)Nc3cc(-c4cccs4)cc(-c4ccc(F)cc4F)c3)[nH]c2c1` stands at 5.7

For reference, reported IC50 for `CC(C)Oc1cc(OC(F)(F)F)cc(C(C)(C)c2cc(Cl)cc(NC(=O)c3cc4cnc(NS(C)(=O)=O)cc4[nH]3)c2)c1` stands at 1.1

// data source = patent US10562912B2
